Test system: HSCs
EXPERIMENT_NOTES: MTT cell viability assay, HSCs
Assay type: cell-based
TEST_CONTEXT: 72 h, mean ± SD of three experiments
pIC50: −log10 of the molar value.
MEASUREMENT_KIND: pIC50

INSERT INTO results (molecule, experimental_target, measurement_kind, result) VALUES
  ('CC1(C)CCC2(C(=O)O)CCC3(C)C(=CCC4C5(C)CCC(OC(=O)C6CCC(=O)N6)C(C)(C)C5CCC43C)C2C1 (stereo not drawn)', 'HSCs', 'pIC50', '< 4.60'),
  ('CC(C)CC(N)C(=O)OC1CCC2(C)C(CCC3(C)C2CC=C2C4CC(C)(C)CCC4(C(=O)O)CCC23C)C1(C)C (stereo not drawn)', 'HSCs', 'pIC50', '< 4.60'),
  ('CC1(C)CC[C@]2(C(=O)O)CC[C@]3(C)C(=CC[C@@H]4[C@@]5(C)CC[C@H](O)C(C)(C)[C@@H]5CC[C@]43C)[C@@H]2C1 [OA, 3β-hydroxyolean-12-en-28-oic acid, reference compound]', 'HSCs', 'pIC50', '< 4.30');
